The origin of these recorded values is PubChem BioAssay (NCI).

System: NCI-H522 lung
assay.overview: NCI-60 one-dose screen, 48 h (100 = growth as untreated, 0 = no growth, -100 = all killed)
stated.conditions: 10 µM unless noted
The panel holds about 83,000 compounds, 20% with a hit somewhere; the sample as a whole holds those more often.

| compound | growth [%] |
| --- | --- |
| Cc1cc(C(NC(=O)CCCCCNc2cccc3c2C(=O)N(C2CCC(=O)CC2=O)C3=O)c2cccc(N(C)C)c2)c(O)c2ncccc12 (stereo not given) | 13 |
| CN(C)C(=O)c1cc(-c2ccc3ncnc(N4CCc5cc(F)c(Cl)cc54)c3c2)cnc1N | -13.4 |
| O=C1Nc2cc(-c3ccc(NS(=O)(=O)c4ccc(-c5ccccc5)cc4)cc3)ccc2/C1=C/c1ccc[nH]1 | -11.8 |
| CCOc1ccccc1NC(=O)N/C(N)=N/c1nc2ccccc2s1 | -39.8 |
| CN1C(=O)/C(=C/c2ccco2)S/C1=N/c1nccs1 | 100 |
| COc1cc(/C=C/C(=O)c2cnn(-c3cc(=O)[nH]c4ccc(Cl)cc34)c2C)cc(OC)c1OC | -62.9 |
| S=C(NCCc1ccccc1)Nc1ccc(OCc2nc3ccc(Cl)cc3[nH]2)cc1 | -26.8 |
| CN(C)c1nc(NCCNS(=O)(=O)c2ccc(C(=O)/C=C/c3ccc(C(F)(F)F)cc3)cc2)nc(N2CCOCC2)n1 | 18.5 |
| COc1ccc2[nH]c(O)c(N=NC(=O)c3ccc4nc(-c5ccc(Cl)cc5)[nH]c4c3)c2c1 | 35.3 |
| FC(F)(F)c1cc2c(Cl)ncnc2n1CCN1CCOCC1 | -80.3 |
| CCC(=O)c1c2c(c3ccc4c5ccccc5ccc4n13)C(=O)c1ccccc1C2=O | 86.8 |
| COc1ccccc1NC(=O)N/N=C/c1c[nH]c2ccccc12 | -37.1 |
| COc1cc(NC(=O)CSc2nnc(-c3ccc(-c4nc5ccc(Cl)cc5[nH]4)cc3)o2)cc(OC)c1OC | 35 |
| Cc1ccccc1Nc1nnc(-c2c[nH]c3ccccc23)o1 | -23.2 |
| COc1ccc(-c2nnc3c(/C=C/c4ccc(Br)cc4)nc4ccccc4n23)cc1 | -79.9 |
| Cc1[nH]nc2ccc3nc(-c4cnn(CCO)c4)c4c(c3c12)CCCC4 | 18.9 |
| Fc1ccc(N2CC(Cn3c(C(F)(F)F)cc4c(Cl)ncnc43)C2)c(F)c1 | 9.73 |
| COc1c(F)ccc(C(=O)Nc2ccc3nc(NC(=O)C4CCCN(S(=O)(=O)c5ccc(C(C)(C)C)cc5)C4)sc3c2)c1F (stereo not given) | 66.7 |
| CC(=O)c1ccc2c(N)c(C(=O)Nc3ccc(C(F)(F)F)cc3)sc2n1 | 59.8 |
| O=C(Nc1ccc(-c2ccc3c(c2)NC(=O)/C3=C\c2ccc[nH]2)cc1)Nc1cccc(Cl)c1 | -51.7 |

* * *

Tested on: T-47D breast
assay.overview: NCI-60 one-dose screen, 48 h (100 = growth as untreated, 0 = no growth, -100 = all killed)
stated.conditions: 10 µM unless noted
Compounds without any hit were thinned out: in the full panel of roughly 83,000, 20% have a hit.
# note: boundary value -30% maps to 0; growth below it maps to 1

| compound | measured.on | group |
| --- | --- | --- |
| CC[C@]12C=CCN3CC[C@]4(C(=C(C(=O)OC)C1)Nc1cc(OC)c([C@@H]5[C@H]6O[C@H]6[C@@]6(CC)CC(C(=O)OC)=C7Nc8cc(O)ccc8[C@@]78CCN5[C@@H]68)cc14)[C@@H]32 | T-47D breast | 0 |
| COc1c(F)ccc(C(=O)Nc2ccc3nc(NC(=O)C4CCCN(S(=O)(=O)c5ccc(C(C)(C)C)cc5)C4)sc3c2)c1F (configuration not stated) | T-47D breast | 0 |
| Cc1ccc2c(c1)nc(-c1ccccc1)n2CC(=O)N=Nc1c(O)[nH]c2ccc(Cl)cc12 | T-47D breast | 1 |
| COc1ccc(-c2nnc3c(/C=C/c4ccc(Br)cc4)nc4ccccc4n23)cc1 | T-47D breast | 0 |
| Cc1cc(C2(c3cc(C)c(OCC(O)CNc4c(C)n(C)n(-c5ccccc5)c4=O)cc3C(C)C)OC(=O)c3ccccc32)c(C(C)C)cc1OCC(O)CNc1c(C)n(C)n(-c2ccccc2)c1=O (configuration not stated) | T-47D breast | 0 |
| O=C(c1ccc(Cl)cc1)C1[C@H](c2ccccc2Cl)[C@@H](c2ccccc2)NC12C(=O)Nc1ccc(Cl)cc12 (some centres not stated) | T-47D breast | 1 |
